# Target Or System: EGFR L858R/C797S (Homo sapiens, UniProt P00533, C797S/L858R)
# Sequence (P00533 25-1210 C797S/L858R): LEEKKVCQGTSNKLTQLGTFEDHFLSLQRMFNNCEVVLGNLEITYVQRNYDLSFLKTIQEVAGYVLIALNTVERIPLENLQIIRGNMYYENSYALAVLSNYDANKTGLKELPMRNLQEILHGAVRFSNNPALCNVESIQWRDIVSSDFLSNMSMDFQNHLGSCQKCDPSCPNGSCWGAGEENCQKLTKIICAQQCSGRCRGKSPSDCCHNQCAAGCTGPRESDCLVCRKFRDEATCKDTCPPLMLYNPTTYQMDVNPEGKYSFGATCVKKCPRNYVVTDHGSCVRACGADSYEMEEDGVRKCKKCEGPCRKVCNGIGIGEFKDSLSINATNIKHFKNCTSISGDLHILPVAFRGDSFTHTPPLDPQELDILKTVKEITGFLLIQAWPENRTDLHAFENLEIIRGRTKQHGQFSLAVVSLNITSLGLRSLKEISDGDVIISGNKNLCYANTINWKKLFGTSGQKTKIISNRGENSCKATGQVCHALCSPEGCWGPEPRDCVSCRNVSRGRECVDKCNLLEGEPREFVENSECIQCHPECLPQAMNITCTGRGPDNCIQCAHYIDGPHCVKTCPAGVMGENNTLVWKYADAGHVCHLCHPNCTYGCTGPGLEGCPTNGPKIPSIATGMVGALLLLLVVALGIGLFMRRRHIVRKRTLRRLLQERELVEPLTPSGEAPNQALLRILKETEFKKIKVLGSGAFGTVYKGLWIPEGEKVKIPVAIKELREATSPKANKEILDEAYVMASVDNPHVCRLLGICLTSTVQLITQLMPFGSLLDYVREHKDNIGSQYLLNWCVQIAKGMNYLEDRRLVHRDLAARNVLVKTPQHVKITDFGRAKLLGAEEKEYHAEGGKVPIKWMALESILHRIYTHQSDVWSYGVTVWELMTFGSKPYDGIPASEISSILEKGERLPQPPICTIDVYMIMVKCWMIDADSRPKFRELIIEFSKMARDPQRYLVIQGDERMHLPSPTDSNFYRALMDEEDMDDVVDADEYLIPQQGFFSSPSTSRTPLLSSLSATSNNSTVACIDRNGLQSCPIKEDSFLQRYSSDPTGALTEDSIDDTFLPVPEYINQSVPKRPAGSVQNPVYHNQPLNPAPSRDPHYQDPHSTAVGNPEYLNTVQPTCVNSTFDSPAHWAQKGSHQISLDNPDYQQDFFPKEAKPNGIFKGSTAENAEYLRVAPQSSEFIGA
# Run Description: Biochemical EGFR kinase inhibition assay (Lance Ultra TR-FRET), double mutant L858R/C797S
# Protocol Conditions: Km ATP; read-out: IC50 L858R/C797S (nM) Km ATP
Observable: IC50

Consider the worked cases shown below.
CC(=O)N1CCC(n2cc(C#Cc3cnc(Nc4ccnc(-c5cnn(S(=O)(=O)C6CC6)c5)n4)cc3N[C@H]3CC[C@@H](O)CC3)cn2)CC1
1.6 nM
CN(C)CCNC1CCN(c2cc(Nc3ccnc(-c4cnn(S(=O)(=O)C5CC5)c4)n3)ncc2C#Cc2ccn(C)n2)CC1
3.9 nM
O=S(=O)(C1CC1)n1cc(-c2nccc(Nc3cc(NC4CCC(O)CC4)c(C#Cc4cnn(C5CC5(F)F)c4)cn3)n2)cn1 (stereo not shown)
3.1 nM
CN(C)CCCn1cc(C#Cc2cnc(Nc3ccnc(-c4cnn(S(=O)(=O)C5CC5)c4)n3)cc2N[C@H]2CC[C@@H](O)CC2)cn1
0.3 nM
CC(C)n1cc(C#Cc2cnc(Nc3ccnc(-c4cnn(S(=O)(=O)C5CC5)c4)n3)cc2OC[C@H]2CC[C@H](CN(C)C)CC2)cn1
1.7 nM

List the reported IC50 of each compound below.
1. Cn1cc(C#Cc2cnc(Nc3ccnc(-c4cnn(S(=O)(=O)C5CC5)c4)n3)cc2NCC(C)(C)CO)cn1
2. CC(=O)N1CCC(n2cc(C#Cc3cnc(Nc4ccnc(-c5cnn(S(=O)(=O)C6CC6)c5)n4)cc3N3CCC(NCCN(C)C)CC3)cn2)CC1
3. Cn1cc(C#Cc2cnc(Nc3ccnc(-c4cnn(S(=O)(=O)C5CC5)c4)n3)cc2N2CCC3(CCNC3=O)CC2)cn1

["32.3 nM", "0.9 nM", "1.2 nM"]

Please go through the list and note IC50 for each compound.
1. CC(O)C1CCN(c2cc(Nc3ccnc(-c4cnn(S(=O)(=O)C5CC5)c4)n3)ncc2C#Cc2cnn(C)c2)CC1 (stereo not shown)
2. Cn1cc(C#Cc2cnc(Nc3ccnc(-c4cnn(S(=O)(=O)C5CC5)c4)n3)cc2N2CCC(O)CC2)cn1
3. Cn1cc(C#Cc2cnc(Nc3ccnc(-c4cnn(S(=O)(=O)C5CC5)c4)n3)cc2N2CCCC(CO)CC2)cn1 (stereo not shown)
4. O=S(=O)(C1CC1)n1cc(-c2nccc(Nc3cc(N4CCCC(CO)C4)c(C#Cc4cnn(C5CCOCC5)c4)cn3)n2)cn1 (stereo not shown)

["2.8 nM", "3.6 nM", "22.1 nM", "7.1 nM"]

State measured IC50 of the compound CN(C)Cc1ccc(CNc2cc(Nc3ccnc(-c4cnn(S(=O)(=O)C5CC5)c4)n3)ncc2C#Cc2cnn(CCF)c2)cc1 with EGFR L858R/C797S (Homo sapiens, UniProt P00533, C797S/L858R).
49.1 nM

###

# Target Or System: EGFR L858R/C797S (Homo sapiens, UniProt P00533, C797S/L858R)
# Run Description: Biochemical EGFR kinase inhibition assay (Lance Ultra TR-FRET), double mutant L858R/C797S
# Protocol Conditions: ATP at Km; read-out: IC50 L858R/C797S (nM), Km ATP
Please assign rule not met whenever IC50 is at or above 20 nM, and rule met whenever it is below.

CC1(CO)CCN(c2cc(Nc3ccnc(-c4cnn(S(=O)(=O)C5CC5)c4)n3)ncc2C#Cc2cnn(C(F)F)c2)CC1 [Example 305]
rule met
Cn1cc(C#Cc2cnc(Nc3ccnc(-c4cnn(S(=O)(=O)C5CC5)c4)n3)cc2N2CC3(CCNCC3)C2)cn1 [Example 155]
rule met
CN(C)C[C@H]1CC[C@@H](Nc2cc(Nc3ccnc(-c4cnn(S(=O)(=O)C5CC5)c4)n3)ncc2C#Cc2cnn(C(F)(F)F)c2)CC1 [Example 314]
rule met
C[C@]1(O)CC[C@@H](Nc2cc(Nc3ccnc(-c4cnn(S(=O)(=O)C5CC5)c4)n3)ncc2C#CCN2CCOCC2)CC1 [Example 166]
rule not met
C[C@]1(O)CC[C@@H](Nc2cc(Nc3ccnc(-c4cnn(S(=O)(=O)C5CC5)c4)n3)ncc2C#Cc2ccc(CN3CCOCC3)cc2)CC1 [Example 158]
rule met

API: query returns whether the compound falls strictly under 20 nM in IC50. Query: CC1(CO)CCN(c2cc(Nc3ccnc(-c4cnn(S(=O)(=O)C5CC5)c4)n3)ncc2C#Cc2nc(C(F)(F)F)cs2)CC1 [Example 291]
rule not met

The measured values listed here are drawn from patent US11981658B2.
